assay: in vivo; set-up: species or system dog; conditions: beagle, dog, in vivo; female dogs (n = 2), PO 15 mg/kg; read-out: Plasma Cmax
value.kind: Cmax

[
  {
    "smiles.str": "[2H]C([2H])([2H])C1(C([2H])([2H])[2H])NC(=O)N(c2ccc(F)c(C(C)(F)F)c2)C1=O",
    "value.kind": "Cmax",
    "observed.result": "42700 ng/mL"
  }
]

###

assay: Stability in mouse cryopreserved hepatocytes; assay type: in vitro ADME; conditions: read-out: in vitro CLint
value.kind: hepatocyte CLint

[
  {
    "compound": "[2H]C([2H])([2H])C1(C([2H])([2H])[2H])NC(=O)N(c2ccc(F)c(C(C)(F)F)c2)C1=O [Compound IE]",
    "observed.result": "< 2000 µL/min/1e6 cells"
  }
]

###

Tested on: LAPC4 cells
Assay: Androgen-dependent cell-based assay (DHT, LAPC4)
Conditions: Homo sapiens; DHT-induced, androgen-dependent LAPC4 prostate cancer cell line; read-out: LAPC4 IC50
Description: Androgen-Dependent Cell-based Assay. As described by Jones and Diamond (2008), LAPC4 cells were cultured in phenol red free RPMI 1640 media supplemented with antibiotics and 10% FBS. […] […] Mean-effect plots (log[compound] vs. log[fractional effect]) were generated to determine the IC50 values for each test compound or combinations of test compounds at constant ratios.

[
  {
    "compound": "[2H]C([2H])([2H])C1(C([2H])([2H])[2H])NC(=O)N(c2ccc(F)c(C(F)(F)F)c2)C1=O",
    "unit.label": "µM",
    "modifier.sign": "=",
    "IC50": 13
  },
  {
    "compound": "[2H]C([2H])([2H])C1(C([2H])([2H])[2H])NC(=O)N(c2ccc(F)c(C(C)(F)F)c2)C1=O",
    "unit.label": "µM",
    "modifier.sign": ">",
    "IC50": 100
  },
  {
    "compound": "CC1(C)NC(=O)N(c2ccc(F)c(C(C)(F)F)c2)C1=O",
    "unit.label": "µM",
    "modifier.sign": ">",
    "IC50": 100
  },
  {
    "compound": "CC1(C(F)F)NC(=O)N(c2ccc(F)c(C(F)(F)F)c2)C1=O (stereo not shown)",
    "unit.label": "µM",
    "modifier.sign": "=",
    "IC50": 4.2
  }
]

###

experiment: Mouse exposure / pharmacokinetic studies; type: in vivo, mice; conditions: male, Swiss outbred, mouse, in vivo; mice, oral, mean dose 26.3 mg/kg
value.kind: Tmax (h)

[
  {
    "smiles.str": "[2H]C([2H])([2H])C1(C([2H])([2H])[2H])NC(=O)N(c2ccc(F)c(C(C)(F)F)c2)C1=O",
    "observed.result": 7
  }
]

###

assay: Pharmacokinetics in male Sprague Dawley rats; type: in vivo, rat; settings: male, Sprague Dawley, rat, in vivo, po, 1 mg/kg, rats, PO 1 mg/kg, individual rats; read-out: Plasma Cmax
value.kind: Cmax (ng/mL)

[
  {
    "smiles.str": "CC1(C)NC(=O)N(c2ccc(F)c(C(C)(F)F)c2)C1=O",
    "unit.label": "ng/mL",
    "observed.result": 614
  }
]

###

test: Mouse exposure / pharmacokinetic studies; type: in vivo, mice; conditions: male, Swiss outbred, mouse, in vivo, iv, 1 mg/kg, mice, IV, mean dose 1.0 mg/kg; read-out: Plasma CL
Attribute: clearance

[
  {
    "compound": "[2H]C([2H])([2H])C1(C([2H])([2H])[2H])NC(=O)N(c2ccc(F)c(C(C)(F)F)c2)C1=O [Compound IE]",
    "clearance / mL/min/kg": 0.491
  },
  {
    "compound": "CC1(C)NC(=O)N(c2ccc(F)c(C(C)(F)F)c2)C1=O [Compound IC]",
    "clearance / mL/min/kg": 1.96
  }
]

All values here come from patent US20250353819A1.
